target: AxCT mask27 EGFR EH104 L070 version 1
RECORDED_ENDPOINT: Percent cleavage (%)

protein="Neutrophil Elastase (protein) IVGGRRARPHAWPFMVSLQLRGGHFCGATLIAPNFVMSAAHCVANVNVRAVRVVLGAHNLSRREPTRQVFAVQRIFENGYDPVNLLNDIVILQLNGSATINANVQVAQLPAQGRRLGNGVQCLAMGWGLLGRNRGIASVLQELNVTVVTSLCRRSNVCTLVRGRQAGVCFGDSGSPLVCNGLIHGIASFVRGGCASGLYPDAFAPVAQFVNWIDSIIQ" recorded_endpoint="Percent cleavage" endpoint_result=11
protein="Cathepsin G (protein) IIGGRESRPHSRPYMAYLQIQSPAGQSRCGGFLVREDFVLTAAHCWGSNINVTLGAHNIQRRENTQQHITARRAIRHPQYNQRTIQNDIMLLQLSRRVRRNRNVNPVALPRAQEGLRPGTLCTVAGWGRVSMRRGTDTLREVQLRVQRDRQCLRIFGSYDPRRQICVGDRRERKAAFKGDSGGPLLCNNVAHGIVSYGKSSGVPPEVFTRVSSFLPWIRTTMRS" recorded_endpoint="Percent cleavage" endpoint_result=0
protein="MMP-7 (protein) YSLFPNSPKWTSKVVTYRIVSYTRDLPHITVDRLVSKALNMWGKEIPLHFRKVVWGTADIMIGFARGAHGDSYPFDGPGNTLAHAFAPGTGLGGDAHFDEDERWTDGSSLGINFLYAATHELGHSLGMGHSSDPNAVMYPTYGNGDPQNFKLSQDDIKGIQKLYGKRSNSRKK" recorded_endpoint="Percent cleavage" endpoint_result=9
